# Test: Cytotoxicity against human 184B5 cells after 72 hrs by MTT assay
# Type: cell-based
# Measurement Context: 184B5 cells
This section presents compounds with their documented GI50 at 72 h values.

{"columns": ["Entry Smiles", "Comparison Operator", "GI50 at 72 h / µM"],
 "data": [
  ["COc1ccc(CNc2nc([SeH])nc3ccccc23)cc1", "=", 71.2],
  ["CCCCC[Se]c1nc(N)c2cccnc2n1", "=", 10.3],
  ["C[Se]c1nc(N)c2ccccc2n1", "=", 24.4],
  ["CCCCC[Se]c1nc(NCc2ccccc2)c2ccccc2n1", "=", 70.9],
  ["CSc1nc(NCCCCCO)c2cccnc2n1", ">", 100],
  ["CCCCC[Se]c1nc(NCc2ccc(SC)cc2)c2ccccc2n1", "=", 57.4],
  ["CSc1nc(NCCc2ccccc2)c2ccccc2n1", "=", 8.3],
  ["CCCCCSc1nc(NCc2ccc([Se]C)cc2)c2ccccc2n1", "=", 73],
  ["CSc1ccc(CNc2nc(SC)nc3ncccc23)cc1", "=", 0.19],
  ["CSc1ccc(CNc2nc([Se]C)nc3ccccc23)cc1", "=", 37.1],
  ["[SeH]c1nc(NCc2ccccc2)c2ccccc2n1", "=", 20.8],
  ["C[Se]c1nc(N)c2cccnc2n1", "=", 45.5],
  ["[SeH]c1nc(NCc2ccccc2)c2cccnc2n1", "=", 3.7]
]}
